target: Gag-Pol polyprotein (Human immunodeficiency virus type 1 group M subtype B (isolate HXB2)); experiment: RNase H inhibition, HIV 1 Gag Pol polyprotein, FRET biochemical assay, screening (AID 372); details: HIV-1 RT RNase H, FRET RNA/DNA substrate fluorescence; at 10 µM; stronger effect = higher value
Hit rate of the full screen: of about 100,000 compounds, about 770 (0.77%) were called active. Shown is part of a subset that was picked to be rich in actives.
# cutoff 30% applies to inhibition; >= gives class 1, < gives class 0

Look over these answered cases.
compound | assayed.target | group.label
CC(=O)C1=C(C)NC(SCC(=O)c2ccc(C)cc2)=C(C#N)C1c1ccc(Br)cc1 (configuration not stated) | Gag-Pol polyprotein (Human immunodeficiency virus type 1 group M subtype B (isolate HXB2)) | class 0
CCOC(=O)C1=C(C)N=c2s/c(=C\c3ccccc3O)c(=O)n2C1c1ccc(Cl)cc1 (configuration not stated) | Gag-Pol polyprotein (Human immunodeficiency virus type 1 group M subtype B (isolate HXB2)) | class 0
COc1ccc(/C=C/c2nc3sc4c(c3c(=O)o2)CCCC4)cc1 | Gag-Pol polyprotein (Human immunodeficiency virus type 1 group M subtype B (isolate HXB2)) | class 0
O=C(N/N=C/c1ccc(Cl)c([N+](=O)[O-])c1)c1cc2ccccc2o1 | Gag-Pol polyprotein (Human immunodeficiency virus type 1 group M subtype B (isolate HXB2)) | class 1
Cc1ccc(-c2n[nH]c(=S)n2N=Cc2ccccc2OCC(=O)O)cc1 | Gag-Pol polyprotein (Human immunodeficiency virus type 1 group M subtype B (isolate HXB2)) | class 0

Answer whether inhibition of `O=C(N/N=C/c1cc([N+](=O)[O-])ccc1Cl)c1ccc(O)c(O)c1` is greater than or equal to 30%. class 1

Now the compound `CN1C[N+]([O-])=C(c2ccccc2)C1(C)C` class 0

Thanks! And `Cc1ccc(N=C2NC(=O)/C(=C\c3ccc(C)o3)S2)cc1` ? class 1

Same thing, different compound: `C=CC(=O)NC1(CCC)CCCCC1` class 0

`O=C(N/N=C/c1ccc(Cl)c([N+](=O)[O-])c1)c1ccccn1` ? class 0

Now the same for `O=C(N/N=C/c1ccc(Cl)c([N+](=O)[O-])c1)c1ccc(O)c(O)c1` class 1

---

biological target: Gag-Pol polyprotein (Human immunodeficiency virus type 1 group M subtype B (isolate HXB2)) (UniProt P04585); assay: RNase H inhibition, HIV 1 Gag Pol polyprotein, FRET biochemical assay, screening (AID 372); details: HIV-1 RT RNase H, FRET RNA/DNA substrate fluorescence; at 10 µM; stronger effect = higher value
Among all 100,000 compounds or so, about 770 (0.77%) were called active. What follows is part of a selection rich in actives, with near analogues and random picks from the rest.
recorded.metric: inhibition (%)
Give bare numbers, in %.

Example entries and their recorded answers appear below.
smiles.str | inhibition [%]
O=C(Nc1ccc([N+](=O)[O-])cc1)c1ccc(-c2ccc(Cl)c(Cl)c2)o1 | 50
COc1cccc(-c2csc(/C(C#N)=C\Nc3cc(OC)c(Cl)cc3OC)n2)c1 | 16
COc1ccc(-c2csc(/C(C#N)=C\Nc3cc(OC)c(Cl)cc3OC)n2)cc1 | 52
N#C/C(=C/Nc1cccc(Cl)c1Cl)c1nc(-c2ccc3c(c2)OCO3)cs1 | 58

The record that follows has no inhibition shown yet.
// inhibition lookup, key: `COc1ccc(-c2csc(/C(C#N)=C\Nc3cc(Cl)ccc3Cl)n2)cc1OC` 40

---

target: Gag-Pol polyprotein (Human immunodeficiency virus type 1 group M subtype B (isolate HXB2)); experiment: RNase H inhibition, HIV 1 Gag Pol polyprotein, FRET biochemical assay, screening (AID 372); details: HIV-1 RT RNase H, FRET RNA/DNA substrate fluorescence; at 10 µM; stronger effect = higher value
Screen size: about 100,000 compounds; about 770 (0.77%) were called active. The full list was thinned out, with actives kept by preference.
Cut-off 20% on inhibition, inclusive. At or above means true; below means false.

smiles.str | assayed.target | group.label
CCn1c(=O)sc2cccc(Cl)c21 | Gag-Pol polyprotein (Human immunodeficiency virus type 1 group M subtype B (isolate HXB2)) | true
O=c1[nH]c2ccccc2c(O)c1-c1ccccc1[N+](=O)[O-] | Gag-Pol polyprotein (Human immunodeficiency virus type 1 group M subtype B (isolate HXB2)) | false
Cc1cc(C)cc(OC(=O)Cn2c(=O)sc3cccc(Cl)c32)c1 | Gag-Pol polyprotein (Human immunodeficiency virus type 1 group M subtype B (isolate HXB2)) | false
Cc1ccc(-c2cc(=O)c3cc(C)ccc3o2)cc1 | Gag-Pol polyprotein (Human immunodeficiency virus type 1 group M subtype B (isolate HXB2)) | false

Given the entry `Cc1ccc(N2C(=O)NC(=O)/C(=C\c3ccc(OCC(=O)O)c(Br)c3)C2=O)cc1` , answer whether its inhibition meets or surpasses 20%. false

What do we get for `CN(C)c1ccc(-c2c3cc(O)c(=O)cc-3oc3cc(O)c(O)cc23)cc1` ? true

Same lookup for `COc1ccc2ccccc2c1C=Nc1ccc(C)cc1O` , please. true

And what about the molecule `O=c1cc2oc3cc(O)c(O)cc3c(-c3ccccc3[N+](=O)[O-])c-2cc1O` ? true

And the next one, `CC1(C)CC(=O)c2cc(C(=O)NCc3ccccc3)c(=O)n(-c3ccccc3)c2C1` ? false

Next up: `Cc1ccc(-c2cc(=O)c3cc(Cl)ccc3o2)cc1` false

Another molecule: `COc1cc(C(=O)NCc2ccc(C(=O)O)cc2)cc(OC)c1OC` false

---

target: Gag-Pol polyprotein (Human immunodeficiency virus type 1 group M subtype B (isolate HXB2)) (UniProt P04585); assay: RNase H inhibition, HIV 1 Gag Pol polyprotein, FRET biochemical assay, screening (AID 372); conditions: HIV-1 RT RNase H, FRET RNA/DNA substrate fluorescence; at 10 µM; stronger effect = higher value
Hit rate of the full screen: of about 100,000 compounds, about 770 (0.77%) were called active. This is one part of a sample in which actives are shown more often than they occur.
So I've got a bunch of compounds here, and I need their inhibition values.

Solved entries:
smiles.str | inhibition
COc1ccc(N2C(=O)/C(=C/c3cccn3-c3ccc(Br)cc3)C(=O)NC2=S)cc1 | 29% (inactive)
O=C1NC(=S)NC(=O)C1=Cc1cccn1-c1ccc(Cl)cc1 | 11% (inactive)
CN1C(=O)/C(=C/c2cccn2-c2ccc([N+](=O)[O-])cc2)SC1=S | 42% (inactive)
O=C1NC(=S)N(c2ccc(Cl)cc2)C(=O)/C1=C/c1cccn1-c1ccccc1 | 4% (inactive)

Let's switch to this compound now.
Look up inhibition for this compound: `O=C1NC(=O)C(=Cc2cccn2-c2ccccc2)C(=O)N1` 29% (inactive)

---

target: Gag-Pol polyprotein (Human immunodeficiency virus type 1 group M subtype B (isolate HXB2)) (UniProt P04585); assay: RNase H inhibition, HIV 1 Gag Pol polyprotein, FRET biochemical assay, screening (AID 372); conditions: HIV-1 RT RNase H, FRET RNA/DNA substrate fluorescence; at 10 µM; stronger effect = higher value
Screen size: about 100,000 compounds; about 770 (0.77%) were called active. The sample as a whole holds a higher share of actives than the screen did.
Assign class by inhibition: not lower than 10% means Y; lower than 10% means N.

Study these solved cases before continuing.
smiles.str | group.label
COc1ccc(C(=O)NC(=S)Nc2ccc(C)c(Cl)c2)cc1[N+](=O)[O-] | N
COc1ccc(C(=O)NC(=S)Nc2ccc3oc(-c4ccccc4Cl)nc3c2)cc1OC | Y
COc1ccc(-c2nc3cc(NC(=S)NC(=O)c4ccccc4OC)ccc3o2)cc1Cl | Y
Cc1ccc(-n2nc3ccc(NC(=O)c4cccc([N+](=O)[O-])c4)cc3n2)cc1Cl | Y
O=C(Nc1ccc(-c2nc3ccc(NC(=O)c4ccccc4[N+](=O)[O-])cc3[nH]2)cc1)c1ccccc1[N+](=O)[O-] | Y

Textbook exercise: given the entry `Cc1ccc(C(=O)Nc2ccccc2)cc1[N+](=O)[O-]` , state whether its inhibition is greater than or equal to 10%. N

Follow-up item: `O=C(Nc1ccc2nn(-c3ccc(F)cc3)nc2c1)c1ccc([N+](=O)[O-])cc1` Y

Please answer likewise for `O=C(Nc1ccc2nn(-c3ccc(F)cc3)nc2c1)c1ccc(Cl)c([N+](=O)[O-])c1` Y

Quick one: `Nc1c2c(cc3ccccc13)C(=O)c1ccccc1C2=O` Y

---

target: Gag-Pol polyprotein (Human immunodeficiency virus type 1 group M subtype B (isolate HXB2)) (UniProt P04585); test: RNase H inhibition, HIV 1 Gag Pol polyprotein, FRET biochemical assay, screening (AID 372); conditions: HIV-1 RT RNase H, FRET RNA/DNA substrate fluorescence; at 10 µM
About 770 (0.77%) of roughly 100,000 compounds were called active. Rule as the data show it: active = inhibition above about 50%; inactive = the rest. Many of the other results were omitted from the sample, so actives are more common in it than they were.
Response enum: active, inactive

compound | group.label
N#CC1=C(N)OC2=C(C(=O)CC(c3ccccc3)C2)C1c1coc2ccccc2c1=O (stereo not given) | inactive
Cc1cc(C=O)c(C)n1-c1cccc([N+](=O)[O-])c1 | inactive

In this assay, the call recorded for `Cc1ccc(N=Cc2ccc(OC3CSC3)cc2)cc1C` was what? inactive

Now this one: `CCOc1ccc(C(=O)Nc2cccc(S(N)(=O)=O)c2)cc1Br` inactive

Try `COc1ccccc1N1CCN(C(=O)c2ccc(CN(c3cc(Cl)ccc3C)S(=O)(=O)c3ccccc3)cc2)CC1` next. inactive

// next record `O=[N+]([O-])c1ccccc1S(=O)(=O)NCCSCc1ccc(Cl)cc1` active
